This listing pairs binders with measured binding score.
# Tested system: SARS-CoV-2 spike RBD (WT) (Severe acute respiratory syndrome …, UniProt P0DTC2)
# Assay method text: ELISA
# Parameters: unit not given here
No unit in the answer, only the number.

C2719 (antibody, V domains shown) VH: EVQLVESGGGLIQPGGSLRLSCAASGFTVSSNYMSWVRQAPGKGLEWVSVIYSGGSTYYADSVKGRFTISRDNSKNTLYLQMNSLRAEDTAVYYCARDLGPYGMDVWGQGTTVTVSS VL: DIQLTQSPSFLSASVGDRVTITCRASQGISSYLAWYQQKPGKAPKLLIYAASTLQSGVPSRFSGSGSGTEFTLTISSLQPEDFATYYCQQLNSYPPEIGQGTRLEIK; 59.3
C2690 (antibody, V domains shown) VH: EVQLVESGGGVVQPGRSLRVSCAASGFTFSSYGMHWVRQAPGKGLEWVAVISYDGSNKYYADSVKGRFSISRDNSKNTLYLQMNSLRAEDTAVYYCAKVISSFGGGSLNYFDYWGQGTLVTVSS VL: AIRMTQSPSSLSASVGDRVTITCQASQDISNYLNWYQQKPGKAPKLLIYDASNLETGVPSRFSGSGSGTDFTFTISSLQPEDIATYYCQQYDNLPITFGQGTRLEIK; 381

Qu. Given the entry D165 (antibody, V domains shown) VH: QVQLVQSGAEVKKPGASVKVSCKASGYTFSNYVINWVRQAPGQRPEWMGWINADNGHTVYSQKLQGRVTITTDTSASEAYMELSGLRSEDTAVYYCARGREDYYNNEPYGMDVWGQGTTVTVSS VL: DIQMTQSPSSLSASVGDRVTITCRASQTISNYLNWYQQKPGQAPKLLIFAASSLQTGVPSRFSGSGSGTTFTLTISSLQPEDFATYYCQQSYGSLYTFGQGTKLDIK , report its measured binding score.
Ans. 1370
